Assay: Pharmacokinetics of JHG components in control rats after intragastric administration of JHGs (plasma, Orbitrap Fusion MS)
Assay type: in vivo, Sprague Dawley (SD) rats
Conditions: male, Sprague Dawley, rat, plasma, po, 11.41 g/kg/day, JHGs medium dose 11.41 g/kg/d, read-out: MRT(0-∞)
Assign MRT inf to each entry below.
Return type: number; implicit unit h.

I am curious: what MRT inf value has been reported for COc1ccc(C(C)=O)c(O)c1 ?
12.7

I am curious: what MRT inf value has been reported for CC1=C2CC3C(CC(=O)C4CC(O)CCC43C)C2CCC12OC1CC(C)CNC1C2C (stereo not drawn) ?
21.3

I am curious: what MRT inf value has been reported for CC1CCC2N(C1)CC1C3CC4C(CC(O)C5CC(O)CCC54C)C3CCC1C2(C)O (stereo not drawn) ?
13.5

I am curious: what MRT inf value has been reported for COc1cc(O)c2c(c1)oc(=O)c1c3cc(O)c(O)cc3oc21 ?
11.6

I am curious: what MRT inf value has been reported for CC1CCC2N(C1)CC1C3CC4C(CC(=O)C5CC(O)CCC54C)C3CCC1C2(C)O (stereo not drawn) ?
11.3

I am curious: what MRT inf value has been reported for O=c1cc(-c2ccc(O)c(O)c2)oc2cc(O[C@@H]3O[C@H](CO)[C@@H](O)[C@H](O)[C@H]3O)cc(O)c12 [Cynaroside] ?
10.3

I am curious: what MRT inf value has been reported for COc1ccc(-c2cc(=O)c3c(OC)c(OC)c(OC)c(OC)c3o2)cc1OC ?
23.3

I am curious: what MRT inf value has been reported for C[C@@H]1O[C@@H](O[C@@H]2[C@@H](O)[C@H](OCCc3ccc(O)c(O)c3)O[C@H](COC(=O)/C=C/c3ccc(O)c(O)c3)[C@H]2O)[C@H](O)[C@H](O)[C@H]1O [Isoacteoside] ?
10.4

I am curious: what MRT inf value has been reported for O=c1cc(-c2ccc(O)cc2)oc2cc(OC3OC(CO)C(O)C(O)C3O)cc(O)c12 (stereo not drawn) [Apigenin-7-glucoside] ?
15.3
